Source of measurements: patent US9212175B2

System: C56BL/6 mice
MEASUREMENT NOTES: Acute cholesterol absorption inhibition assay in mice
Format: in vivo
EXPERIMENTAL CONDITIONS: oral dose 1 mg/kg, [3H]-cholesterol counts in plasma 2 h after cholesterol, relative to vehicle control
Is Cholesterol Absorption Inhibition (%) at least 70%? Then rule met. If not, rule not met.

Query block: Is Cholesterol Absorption Inhibition (%) at least 70%? Consider "O=C(O)COC1(CCc2ccc([C@@H]3[C@@H](CC[C@H](O)c4ccc(F)cc4)C(=O)N3c3ccc(F)cc3)cc2)COC1"
Result block: rule met

Query block: Is Cholesterol Absorption Inhibition (%) at least 70%? Consider "NC(=O)[C@H]1CCCN1C(=O)COC1(CCc2ccc([C@@H]3[C@@H](CC[C@H](O)c4ccc(F)cc4)C(=O)N3c3ccc(F)cc3)cc2)COC1"
Result block: rule met

Query block: Is Cholesterol Absorption Inhibition (%) at least 70%? Consider "O=C(COC1(CCc2ccc([C@@H]3[C@@H](CC[C@H](O)c4ccc(F)cc4)C(=O)N3c3ccc(F)cc3)cc2)COC1)NCCS(=O)(=O)O"
Result block: rule not met

Query block: Is Cholesterol Absorption Inhibition (%) at least 70%? Consider O=C(O)C1CCCCN1C(=O)COC1(CCc2ccc([C@@H]3[C@@H](CC[C@H](O)c4ccc(F)cc4)C(=O)N3c3ccc(F)cc3)cc2)COC1 (stereo partly shown)
Result block: rule met

Query block: Is Cholesterol Absorption Inhibition (%) at least 70%? Consider "O=C(O)[C@@H]1CCCN1C(=O)COC1(CCc2ccc([C@@H]3[C@@H](CC[C@H](O)c4ccc(F)cc4)C(=O)N3c3ccc(F)cc3)cc2)COC1"
Result block: rule not met

Query block: Is Cholesterol Absorption Inhibition (%) at least 70%? Consider "CC(C)[C@@H](NC(=O)COC1(CCc2ccc([C@@H]3[C@@H](CC[C@H](O)c4ccc(F)cc4)C(=O)N3c3ccc(F)cc3)cc2)COC1)C(=O)O"
Result block: rule met

Query block: Is Cholesterol Absorption Inhibition (%) at least 70%? Consider "O=C(O)[C@H]1CCCN1C(=O)COC1(CCc2ccc([C@@H]3[C@@H](CC[C@H](O)c4ccc(F)cc4)C(=O)N3c3ccc(F)cc3)cc2)COC1"
Result block: rule met

* * *

MEASUREMENT NOTES: Determination of absorption: unidirectional permeability assay (Cloe Screen, Cyprotex)
Type: in vitro ADME
EXPERIMENTAL CONDITIONS: human, Caco-2, apical side, cell monolayer, read-out: Papp in cm · s^−1
Protocol: It has further been shown that the compounds of the invention display the desired pharmacological activity by evaluation of their potency in vivo (in mice and hamsters). The bioavailability of the compounds of the present invention has been determined by unidirectional Caco2 Permeability measurement. […] The permeability of the compounds of the present invention was determined using the Cloe Screen® (unidirectional Cloe Screen […] permeability assay; Cyprotex) and is expressed by Papp (cm·s^−1). […]
Is Papp A→B at 2 h at least 0.9 ×10⁻⁶ cm/s? Then 1.0. If not, 0.0.

Please review the entries below; each comes with its answer.
compound="O=C1[C@H](CC[C@H](O)c2ccc(F)cc2)[C@@H](c2ccc(O)cc2)N1c1ccc(F)cc1 [Ezetimibe, reference compound]" group_label=1.0
compound="O=C(COC1(CCc2ccc([C@@H]3[C@@H](CC[C@H](O)c4ccc(F)cc4)C(=O)N3c3ccc(F)cc3)cc2)COC1)NC1(C(=O)O)CCC1 [Example 35]" group_label=0.0
compound="O=C(O)COC1(CCc2ccc([C@@H]3[C@@H](CC[C@H](O)c4ccc(F)cc4)C(=O)N3c3ccc(F)cc3)cc2)COC1 [Example 1]" group_label=1.0

Query block: Is Papp A→B at 2 h at least 0.9 ×10⁻⁶ cm/s? Consider O=C(O)[C@H]1CCCN1C(=O)COC1(CCc2ccc([C@@H]3[C@@H](CC[C@H](O)c4ccc(F)cc4)C(=O)N3c3ccc(F)cc3)cc2)COC1 [Example 19]
Result block: 0.0

Query block: Is Papp A→B at 2 h at least 0.9 ×10⁻⁶ cm/s? Consider O=C(COC1(CCc2ccc([C@@H]3[C@@H](CC[C@H](O)c4ccc(F)cc4)C(=O)N3c3ccc(F)cc3)cc2)COC1)N[C@H](CO)C(=O)O [Example 34]
Result block: 0.0

Query block: Is Papp A→B at 2 h at least 0.9 ×10⁻⁶ cm/s? Consider O=C(COC1(CCc2ccc([C@@H]3[C@@H](CC[C@H](O)c4ccc(F)cc4)C(=O)N3c3ccc(F)cc3)cc2)COC1)NC(CO)(CO)CO [Example 46]
Result block: 1.0
